- test target: UniProt Q8VH26
- Sequence (Q8VH26 whole entry): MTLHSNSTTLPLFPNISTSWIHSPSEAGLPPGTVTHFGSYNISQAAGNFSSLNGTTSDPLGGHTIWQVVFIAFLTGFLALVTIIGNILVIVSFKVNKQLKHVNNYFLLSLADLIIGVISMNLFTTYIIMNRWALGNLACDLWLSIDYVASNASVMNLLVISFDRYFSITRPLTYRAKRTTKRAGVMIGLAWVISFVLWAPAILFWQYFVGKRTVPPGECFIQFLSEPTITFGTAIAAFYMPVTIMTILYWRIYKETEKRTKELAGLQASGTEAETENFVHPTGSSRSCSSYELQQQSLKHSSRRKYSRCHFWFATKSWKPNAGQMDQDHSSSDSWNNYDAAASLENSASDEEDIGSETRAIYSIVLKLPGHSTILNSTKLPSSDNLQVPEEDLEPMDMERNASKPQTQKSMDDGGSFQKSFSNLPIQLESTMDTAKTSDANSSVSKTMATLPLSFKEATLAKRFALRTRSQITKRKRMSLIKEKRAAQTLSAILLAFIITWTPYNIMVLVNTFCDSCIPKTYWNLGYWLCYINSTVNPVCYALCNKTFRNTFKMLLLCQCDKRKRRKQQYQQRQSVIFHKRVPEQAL
- test protocol: Antagonistic activity against M3 muscarinic receptor in guinea pig left ileum derived by plotting log(DR - 1) vs log[antagonist]
- Assay type: functional, tissue-based
- test parameters: read-out: pA2 (converted)
property measured: Kb (nM)
Give the value in nM but do not write nM after it.

>>> observed_value("COc1ccccc1CN(CCCCCCN(C)CCCCCCCCN(C)CCCCCCN(CC(=O)N1c2ccccc2C(=O)Nc2cccnc21)Cc1ccccc1OC)CC(=O)N1c2ccccc2C(=O)Nc2cccnc21.O=C(O)C(=O)O.O=C(O)C(=O)O.O=C(O)C(=O)O.O=C(O)C(=O)O")
2040

Next item in the queue.
Which value of Kb has been reported for CN(CCCCCCCCN(C)CCCCCCN(CC(=O)N1c2ccccc2C(=O)Nc2cccnc21)CC(=O)N1c2ccccc2C(=O)Nc2cccnc21)CCCCCCN(CC(=O)N1c2ccccc2C(=O)Nc2cccnc21)CC(=O)N1c2ccccc2C(=O)Nc2cccnc21.O=C(O)C(=O)O.O=C(O)C(=O)O.O=C(O)C(=O)O.O=C(O)C(=O)O in the records?
759

###

The following compounds each carry a recorded pKi for Muscarinic acetylcholine receptor M2 (Rattus norvegicus).
The meaning of pKi here: minus log10 of the concentration in molar units.

>>> observed_value("COc1ccccc1CNCCCCCCN(C)CCCCCCCCN(C)CCCCCCNCC(=O)N1c2ccccc2C(=O)Nc2cccnc21")
8.77

Lab note: need pKi for COc1ccccc1CN(CCCCCCN(C)CCCCCCCCN(C)CCCCCCNCC(=O)N1c2ccccc2C(=O)Nc2cccnc21)CC(=O)N1c2ccccc2C(=O)Nc2cccnc21.O=C(O)C(=O)O.O=C(O)C(=O)O.O=C(O)C(=O)O.O=C(O)C(=O)O on Muscarinic acetylcholine receptor M2 (Rattus norvegicus), anyone have it?
8.80

###

Entries annotated with measured Kb
- test target: Muscarinic acetylcholine receptor M2 (Cavia porcellus)
- test protocol: Antagonistic activity against M2 muscarinic receptor in guinea pig left atrium derived by plotting log(DR - 1) vs log[antagonist]
- test parameters: read-out: pA2 (converted)
Give the value in nM but do not write nM after it.

Some solved entries appear below for comparison.
>>> observed_value("COc1ccccc1CN(CCCCCCN(C)CCCCCCCCN(C)CCCCCCNCC(=O)N1c2ccccc2C(=O)Nc2cccnc21)CC(=O)N1c2ccccc2C(=O)Nc2cccnc21.O=C(O)C(=O)O.O=C(O)C(=O)O.O=C(O)C(=O)O.O=C(O)C(=O)O")
1.58
>>> observed_value("CCN(CC)CCCCCCNCc1ccccc1OC")
2510
>>> observed_value("COc1ccccc1CN(CCCCCCN(C)CCCCCCCCN(C)CCCCCCN(CC(=O)N1c2ccccc2C(=O)Nc2cccnc21)Cc1ccccc1OC)CC(=O)N1c2ccccc2C(=O)Nc2cccnc21.O=C(O)C(=O)O.O=C(O)C(=O)O.O=C(O)C(=O)O.O=C(O)C(=O)O")
47.9
>>> observed_value("COc1ccccc1CNCCCCCCN(C)CCCCCCCCN(C)CCCCCCNCC(=O)N1c2ccccc2C(=O)Nc2cccnc21")
3.09
>>> observed_value("CN(CCCCCCN)CCCCCCCCN(C)CCCCCCN")
282

Next item in the queue.
Which value of Kb has been reported for COc1ccccc1CNCCCCCCN(C)CCCCCCCCN(C)CCCCCCN(CC(=O)N1c2ccccc2C(=O)Nc2cccnc21)CC(=O)N1c2ccccc2C(=O)Nc2cccnc21.O=C(O)C(=O)O.O=C(O)C(=O)O.O=C(O)C(=O)O.O=C(O)C(=O)O in the records?
4.57

###

- Test system: Muscarinic acetylcholine receptors M2 & M3 (Cavia porcellus)
- test protocol: Selectivity ratio is the antilog of the difference between the pA2 values at guinea pig left atrium and ileum muscarinic receptors
property measured: Ratio

Which value of Ratio has been reported for CCN(CC)CCCCCCN(CC(=O)N1c2ccccc2C(=O)Nc2cccnc21)CC(=O)N1c2ccccc2C(=O)Nc2cccnc21 in the records?
> 10

Which value of Ratio has been reported for CCCCN(CC(=O)N1c2ccccc2C(=O)Nc2cccnc21)CC(=O)N1c2ccccc2C(=O)Nc2cccnc21 in the records?
> 6

Which value of Ratio has been reported for CCN(CC)CCCCCCNCc1ccccc1OC in the records?
> 4
